Target entity: SARS-CoV-2 3CL-protease (Severe acute respiratory syndrome coronavirus 2)
Test method notes: SARS-CoV-2 3C-like (3CL) protease fluorescence assay (FRET)
Assay type: biochemical
Condition label: recombinant SARS-CoV-2 3CL-protease 10 nM, 30 min preincubation at RT, TAMRA-[…]-Dabcyl-OH substrate, run in duplicate
pIC50: −log10 of the molar value.
Recorded pIC50 values for a group of compounds are listed next.
Measure: pIC50

| Compound smiles | Measure | Result |
| --- | --- | --- |
| COc1cccc2oc(C(=O)N3C[C@H]4[C@@H]([C@H]3C(=O)N3C[C@]5(C[C@H]3C#N)C(=O)Nc3ccccc35)C4(C)C)cc12 | pIC50 | > 7.00 |
| COc1cccc2[nH]c(C(=O)N3C[C@@]4(C[C@H]3C(=O)N3C[C@]5(C[C@H]3C#N)C(=O)Nc3ccccc35)CC4(F)F)cc12 | pIC50 | 6.00 to 7.00 |
| N#C[C@@H]1C[C@@]2(CN1C(=O)[C@@H]1[C@H]3CCC[C@H]3CN1C(=O)c1cc3c(F)cc(F)cc3[nH]1)C(=O)Nc1ccccc12 | pIC50 | 6.00 to 7.00 |
| CC1(C)[C@@H]2[C@@H](C(=O)N3C[C@]4(C[C@H]3C#N)C(=O)Nc3ccccc34)N(C(=O)c3cc4c(OC(F)F)cccc4[nH]3)C[C@@H]21 | pIC50 | 6.00 to 7.00 |
| N#C[C@@H]1C[C@@]2(CN1C(=O)[C@@H]1[C@H]3CCC[C@H]3CN1C(=O)OCc1ccccc1)C(=O)Nc1ccccc12 | pIC50 | 6.00 to 7.00 |
| COc1cccc2[nH]c(C(=O)N3C[C@@H]4CCC[C@@H]4[C@H]3C(=O)N3C[C@]4(C[C@H]3C#N)C(=O)Nc3ccccc34)cc12 | pIC50 | > 7.00 |
| COc1cccc2[nH]c(C(=O)N3[C@@H]4C[C@@H]4C[C@H]3C(=O)N3C[C@]4(C[C@H]3C#N)C(=O)Nc3ccccc34)cc12 | pIC50 | > 7.00 |
| COc1cccc2[nH]c(C(=O)N3CC4(CC4)C[C@H]3C(=O)N3C[C@]4(C[C@H]3C#N)C(=O)Nc3ccccc34)cc12 | pIC50 | 6.00 to 7.00 |
